- Test system: HIV-1AD
- PROCEDURE_SUMMARY: Anti-viral activity in TZM-bl cells, PI-sensitive HIV-1AD (luciferase)
- Type: cell-based
- CONDITION_LABEL: PI-sensitive variant
ASSAY_METRIC: pIC50
Recall that pIC50 is obtained by taking minus log10 of the concentration measured in molar.

Record Nc1nc(N)c(N=Nc2ccc(C(=O)O)c(O)c2)c(N)n1 . Reported pIC50: 4.20

// data source = paper PMC8694022
